target: Serine/threonine-protein kinase D2 (Homo sapiens); assay: Inhibition of PKD2 by TR-FRET assay
Please go through the items and note down their pIC50.
pIC50 field: float, defined as -log10 of concentration (mol/L).

Q) Need pIC50, item NC(=O)c1cc(N[C@@H]2CCNC2)nc(-c2ccnc(NC3CCCCC3)c2)c1
A) 7.74

Q) Need pIC50, item N#Cc1cc(-c2ccnc(Nc3ccccc3)c2)nc(N2CCNCC2)c1
A) 7.46

Q) Need pIC50, item NC(=O)c1cc(-c2ccnc(NC3CCCCC3)c2)nc(N2CCCC(N)C2)c1 (stereo not drawn)
A) 6.77

Q) Need pIC50, item NCC1CCN(c2cc(C(N)=O)cc(-c3ccnc(NC4CCCCC4)c3)n2)CC1
A) 6.67

Q) Need pIC50, item C[C@H]1CN(c2cc(C(N)=O)cc(-c3ccnc(NC4CCCCC4)c3)n2)CCN1
A) 7.07

Q) Need pIC50, item FC(F)c1cc(-c2ccnc(NC3CCCCC3)c2)nc(N2CCNCC2)c1
A) 7.12

Q) Need pIC50, item NC(=O)c1cc(-c2ccnc(NC3CCCCC3)c2)nc(N2CCNCC2)c1
A) 8.05

Q) Need pIC50, item c1cc(-c2cc(-c3cc[nH]n3)cc(N3CCNCC3)n2)cc(NC2CCCCC2)n1
A) 7.21

Q) Need pIC50, item NC(=O)c1cc(-c2ccnc(Nc3ccccc3)c2)nc(N2CCNCC2)c1
A) 9.00

Q) Need pIC50, item CC(C)Nc1cc(-c2cc(C(N)=O)cc(N3CCNCC3)n2)ccn1
A) 8.10

Q) Need pIC50, item CN1CCN(c2cc(C(N)=O)cc(-c3ccnc(NC4CCCCC4)c3)n2)CC1
A) 6.62

Q) Need pIC50, item c1cc(-c2cc(-c3cn[nH]c3)cc(N3CCNCC3)n2)cc(NC2CCCCC2)n1
A) 9.00

Q) Need pIC50, item CC1(C)CN(c2cc(C(N)=O)cc(-c3ccnc(NC4CCCCC4)c3)n2)CCN1
A) 6.37

###

Please go through the items and note down their AUC(0-t) at 8 h.
assay: AUC (0 to 8 hrs) in Sprague-Dawley rat at 5 mg/kg, po; assay type: ADME, organism-based; design: time < 8 hr, dose 5 mg/kg, route oral; details: plasma
Kindly format the answer as number then unit.

Q) Need AUC(0-t) at 8 h, item N#Cc1cc(-c2ccnc(Nc3ccccc3)c2)nc(N2CCNCC2)c1
A) 1.1 µM·h

Q) Need AUC(0-t) at 8 h, item c1cc2c(N3CCNCC3)nc(-c3ccnc(NC4CCCCC4)c3)cc2cn1
A) 0.19 µM·h

Q) Need AUC(0-t) at 8 h, item O=C1NCc2c1cc(-c1ccnc(NC3CCCCC3)c1)nc2N1CCNCC1
A) 0.1 µM·h

Q) Need AUC(0-t) at 8 h, item FC(F)(F)c1cc(-c2ccnc(NC3CCCCC3)c2)nc(N2CCNCC2)c1
A) 0.73 µM·h

###

assay: Half life in rats after 2 mg/kg intravenous dose; assay type: ADME, organism-based; set-up: dose 2 mg/kg, route intravenous; conditions: Sprague-Dawley, rat, in vivo
Please go through the items and note down their half-life.
The answer is to be given in h; state only the numeric part.

Q) Need half-life, item N#Cc1cc(-c2ccnc(Nc3ccccc3)c2)nc(N2CCNCC2)c1
A) 3.1

Q) Need half-life, item c1cc2c(N3CCNCC3)nc(-c3ccnc(NC4CCCCC4)c3)cc2cn1
A) 5.2

Q) Need half-life, item O=C1NCc2c1cc(-c1ccnc(NC3CCCCC3)c1)nc2N1CCNCC1
A) 6.2

Q) Need half-life, item NC(=O)c1cc(-c2ccnc(NC3CCCCC3)c2)nc(N2CCNCC2)c1
A) 3.8

###

test: Drug level in Dahl salt-sensitive rat left ventricle at 5 mg/kg, sc qd; conditions: in vivo, read-out: Drug uptake
quantity.kind: concentration (µM)
The answer is to be given in µM; state only the numeric part.

Q) Need concentration, item NC(=O)c1cc(-c2ccnc(NC3CCCCC3)c2)nc(N2CCNCC2)c1
A) 12

###

Please go through the items and note down their IC50.
Target: Serine/threonine-protein kinase D2 (Homo sapiens)
Sequence (Q9BZL6 whole entry): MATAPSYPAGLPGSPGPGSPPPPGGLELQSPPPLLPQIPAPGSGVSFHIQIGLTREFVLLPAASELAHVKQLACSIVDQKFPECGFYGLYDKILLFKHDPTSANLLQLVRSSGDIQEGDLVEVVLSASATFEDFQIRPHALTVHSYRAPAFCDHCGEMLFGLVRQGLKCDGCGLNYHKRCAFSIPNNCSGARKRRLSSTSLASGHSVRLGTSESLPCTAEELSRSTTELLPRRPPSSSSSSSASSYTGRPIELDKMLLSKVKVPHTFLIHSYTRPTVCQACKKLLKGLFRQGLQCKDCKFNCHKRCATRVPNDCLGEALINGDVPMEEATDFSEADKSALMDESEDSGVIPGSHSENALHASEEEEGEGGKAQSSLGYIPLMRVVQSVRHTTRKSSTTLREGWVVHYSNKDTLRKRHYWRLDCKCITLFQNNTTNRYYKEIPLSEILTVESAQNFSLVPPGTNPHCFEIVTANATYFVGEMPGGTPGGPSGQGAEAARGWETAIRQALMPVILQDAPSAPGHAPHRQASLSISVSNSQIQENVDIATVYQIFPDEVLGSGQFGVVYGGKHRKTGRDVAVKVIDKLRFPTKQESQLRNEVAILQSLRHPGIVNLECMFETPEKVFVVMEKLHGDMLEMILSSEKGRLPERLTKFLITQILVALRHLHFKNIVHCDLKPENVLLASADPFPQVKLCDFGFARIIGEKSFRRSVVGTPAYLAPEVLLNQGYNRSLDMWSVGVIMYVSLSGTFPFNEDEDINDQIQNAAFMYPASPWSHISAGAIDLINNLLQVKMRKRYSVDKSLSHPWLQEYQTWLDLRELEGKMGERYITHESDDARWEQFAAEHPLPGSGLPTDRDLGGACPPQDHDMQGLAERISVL
Assay: Inhibition of PKD2 by TR-FRET assay
The answer is to be given in nM; state only the numeric part.

Q) Form field - read-out: IC50; system: Serine/threonine-protein kinase D2 (Homo sapiens); submitted item: NC(=O)c1cc(-c2ccnc(NC3CCCC3)c2)nc(N2CCNCC2)c1
A) 59

Q) Form field - read-out: IC50; system: Serine/threonine-protein kinase D2 (Homo sapiens); submitted item: NC(=O)c1cc(N[C@H]2CCNC2)nc(-c2ccnc(NC3CCCCC3)c2)c1
A) 540

Q) Form field - read-out: IC50; system: Serine/threonine-protein kinase D2 (Homo sapiens); submitted item: Cn1ccc(Nc2cc(-c3cc(C(N)=O)cc(N4CCNCC4)n3)ccn2)n1
A) 7

Q) Form field - read-out: IC50; system: Serine/threonine-protein kinase D2 (Homo sapiens); submitted item: CCNc1cc(-c2cc(C(N)=O)cc(N3CCNCC3)n2)ccn1
A) 31

Q) Form field - read-out: IC50; system: Serine/threonine-protein kinase D2 (Homo sapiens); submitted item: Cn1ccc(Nc2cc(-c3cc(C#N)cc(N4CCNCC4)n3)ccn2)n1
A) 68

Q) Form field - read-out: IC50; system: Serine/threonine-protein kinase D2 (Homo sapiens); submitted item: NC(=O)c1cc(-c2ccnc(Nc3ccccc3Cl)c2)nc(N2CCNCC2)c1
A) 8

Q) Form field - read-out: IC50; system: Serine/threonine-protein kinase D2 (Homo sapiens); submitted item: CC(C)Nc1cc(-c2cc(-c3cn[nH]c3)cc(N3CCNCC3)n2)ccn1
A) 2

Q) Form field - read-out: IC50; system: Serine/threonine-protein kinase D2 (Homo sapiens); submitted item: c1cc(-c2cc(-c3cn[nH]c3)cc(N3CCNCC3)n2)cc(NC2CCOCC2)n1
A) 2

Q) Form field - read-out: IC50; system: Serine/threonine-protein kinase D2 (Homo sapiens); submitted item: NC(=O)c1cc(-c2ccnc(NC3CCOCC3)c2)nc(N2CCNCC2)c1
A) 9

Q) Form field - read-out: IC50; system: Serine/threonine-protein kinase D2 (Homo sapiens); submitted item: N#Cc1cc(-c2ccnc(NC3CCCCC3)c2)nc(N2CCNCC2)c1
A) 130

###

tested on: Plasma; experiment: Drug level in Dahl salt-sensitive rat plasma at 5 mg/kg, sc qd; conditions: in vivo
quantity.kind: concentration

Q) Need concentration, item NC(=O)c1cc(-c2ccnc(NC3CCCCC3)c2)nc(N2CCNCC2)c1
A) 230 nM

###

target: Serine/threonine-protein kinase D1 (Homo sapiens, UniProt Q15139); experiment: Inhibition of PKD1 by TR-FRET assay
Sequence (Q15139 whole entry): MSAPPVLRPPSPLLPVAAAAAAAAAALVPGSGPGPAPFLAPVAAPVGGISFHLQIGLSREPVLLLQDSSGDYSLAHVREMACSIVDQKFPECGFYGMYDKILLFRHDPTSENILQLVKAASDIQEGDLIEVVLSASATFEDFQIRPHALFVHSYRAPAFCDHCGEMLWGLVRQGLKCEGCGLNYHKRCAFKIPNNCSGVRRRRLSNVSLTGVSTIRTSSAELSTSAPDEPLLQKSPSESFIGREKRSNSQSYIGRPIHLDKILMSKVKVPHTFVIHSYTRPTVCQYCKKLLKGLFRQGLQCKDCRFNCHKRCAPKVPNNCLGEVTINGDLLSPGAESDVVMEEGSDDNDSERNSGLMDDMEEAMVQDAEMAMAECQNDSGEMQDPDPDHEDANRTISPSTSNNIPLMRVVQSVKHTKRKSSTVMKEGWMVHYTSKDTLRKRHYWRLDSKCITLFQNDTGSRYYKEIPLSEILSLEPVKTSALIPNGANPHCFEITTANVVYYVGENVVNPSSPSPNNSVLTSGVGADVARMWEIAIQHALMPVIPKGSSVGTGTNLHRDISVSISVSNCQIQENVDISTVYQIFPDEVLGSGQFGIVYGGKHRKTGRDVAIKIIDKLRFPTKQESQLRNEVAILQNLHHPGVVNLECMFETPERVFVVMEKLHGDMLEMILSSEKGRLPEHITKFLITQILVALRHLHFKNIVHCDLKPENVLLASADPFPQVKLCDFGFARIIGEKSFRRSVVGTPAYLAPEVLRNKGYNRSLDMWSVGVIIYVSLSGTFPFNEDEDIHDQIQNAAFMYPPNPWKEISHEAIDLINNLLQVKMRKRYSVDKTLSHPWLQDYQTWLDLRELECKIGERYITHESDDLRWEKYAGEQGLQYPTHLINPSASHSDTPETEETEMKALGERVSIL
pIC50: −log10 of the molar value.
Use 8 as the dividing line for pIC50, with the line itself on the true (1) side and lower values as false (0).

Q) Check the entry CC(C)Nc1cc(-c2cc(C(N)=O)cc(N3CCNCC3)n2)ccn1 : does pIC50 equal or exceed 8?
A) true (1)

Q) Check the entry CC(C)Nc1cc(-c2cc(-c3cn[nH]c3)cc(N3CCNCC3)n2)ccn1 : does pIC50 equal or exceed 8?
A) true (1)

Q) Check the entry NC(=O)c1cc(-c2ccnc(Nc3ccccc3Cl)c2)nc(N2CCNCC2)c1 : does pIC50 equal or exceed 8?
A) true (1)

Q) Check the entry N#Cc1cc(-c2ccnc(NC3CCCCC3)c2)nc(N2CCNCC2)c1 : does pIC50 equal or exceed 8?
A) false (0)

Q) Check the entry O=C1NCc2c1cc(-c1ccnc(NC3CCCCC3)c1)nc2N1CCNCC1 : does pIC50 equal or exceed 8?
A) false (0)

Q) Check the entry Cn1ccc(Nc2cc(-c3cc(C(N)=O)cc(N4CCNCC4)n3)ccn2)n1 : does pIC50 equal or exceed 8?
A) true (1)

Q) Check the entry CCNc1cc(-c2cc(C(N)=O)cc(N3CCNCC3)n2)ccn1 : does pIC50 equal or exceed 8?
A) true (1)

Q) Check the entry NC(=O)c1cc(-c2ccnc(Nc3ccccc3)c2)nc(N2CCNCC2)c1 : does pIC50 equal or exceed 8?
A) true (1)

Q) Check the entry NC(=O)c1cc(-c2ccnc(NC3CCOCC3)c2)nc(N2CCNCC2)c1 : does pIC50 equal or exceed 8?
A) true (1)

Q) Check the entry CN1CCN(c2cc(C(N)=O)cc(-c3ccnc(NC4CCCCC4)c3)n2)CC1 : does pIC50 equal or exceed 8?
A) false (0)

Q) Check the entry NC(=O)c1cc(-c2ccnc(NC3CCCCC3)c2)nc(N2CCNCC2)c1 : does pIC50 equal or exceed 8?
A) true (1)

Q) Check the entry c1cc(-c2cc(-c3cn[nH]c3)cc(N3CCNCC3)n2)cc(NC2CCOCC2)n1 : does pIC50 equal or exceed 8?
A) true (1)
